System: Streptococcus pneumoniae
protocol-description: Antibacterial activity against Streptococcus pneumoniae A9585 after 24 hrs
Format: functional
experimental-parameters: A9585, 24 h
Below: a set of entries, each annotated with reported log10 of MIC.
Remember, log10 of MIC, in µg/mL.

compound	system-tested	measured
C=C[C@]1(C)C[C@@H](OC(=O)CSc2ccccn2)[C@@]2(C)C(=O)[C@](CCC(=O)OCC)(CCC2C)[C@@H](C)[C@@H]1O (stereo not given in full)	Streptococcus pneumoniae	0.00
C=C[C@]1(C)C[C@@H](OC(=O)CSc2cccc(N)c2)[C@@]2(C)C(=O)[C@](CCC(=O)NCC(=O)O)(CCC2C)[C@@H](C)[C@@H]1O (stereo not given in full)	Streptococcus pneumoniae	0.30
C=C[C@]1(C)C[C@@H](OC(=O)CO)[C@@]2(C)C(=O)[C@](CCC(N)=O)(CCC2C)[C@@H](C)[C@@H]1O (stereo not given in full)	Streptococcus pneumoniae	1.81

Which log10 of MIC is reported for this compound? C=C[C@]1(C)C[C@@H](OC(=O)CSc2cccc(N)c2)[C@@]2(C)C(=O)[C@](CCC(=O)OCC)(CCC2C)[C@@H](C)[C@@H]1O (stereo not given in full)
0.00

Report log10 of MIC for C=C[C@]1(C)C[C@@H](OC(=O)CSc2cccc(N)c2)[C@@]2(C)C(=O)[C@](CCC(=O)NCC(=O)OC(C)(C)C)(CCC2C)[C@@H](C)[C@@H]1O (stereo not given in full) please.
-0.30

Name the recorded log10 of MIC for C=C[C@]1(C)C[C@@H](OC(=O)CSc2cccc(N)c2)[C@@]2(C)C(=O)[C@](CCC)(CCC2C)[C@@H](C)[C@@H]1O (stereo not given in full) .
0.90

log10 of MIC lookup needed for C=C[C@]1(C)C[C@@H](OC(=O)CSc2ccccc2O)[C@@]2(C)C(=O)[C@](CCC(=O)O)(CCC2C)[C@@H](C)[C@@H]1O (stereo not given in full) , thanks.
0.60

What log10 of MIC value was documented for this compound, C=C[C@]1(C)C[C@@H](OC(=O)CSc2cc(C)nc(C)c2)[C@@]2(C)C(=O)[C@](CCC(=O)N(CC)CC)(CCC2C)[C@@H](C)[C@@H]1O (stereo not given in full) ?
0.60
